The origin of these recorded values is patent US20210179728A1.

# tested_system: T1, recombinant hSIRPa (Sino Biologicals, reference 11612-H08H) (human, UniProt P78324 31-370)
# T1 construct: also called SIRPa-His; human SIRPa-His; not shown: His tag (histidine tail)
# T1 sequence (P78324 31-370 limits assumed): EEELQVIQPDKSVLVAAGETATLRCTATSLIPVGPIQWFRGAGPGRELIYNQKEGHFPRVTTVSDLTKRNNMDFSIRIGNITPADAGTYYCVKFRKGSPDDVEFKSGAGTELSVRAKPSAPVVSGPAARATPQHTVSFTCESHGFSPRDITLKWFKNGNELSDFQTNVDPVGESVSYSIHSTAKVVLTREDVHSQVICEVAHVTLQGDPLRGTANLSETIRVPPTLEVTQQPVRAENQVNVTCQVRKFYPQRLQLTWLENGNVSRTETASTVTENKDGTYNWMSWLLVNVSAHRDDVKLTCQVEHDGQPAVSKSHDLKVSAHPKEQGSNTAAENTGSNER
# test_description: SPR (Biacore); SIRPa-His immobilized on CM5 chip, antibody injected
endpoint: pKd
Entry type: numeric. Quantity: pKd, the -log10 of concentration in molar units.

**Q:** Find the recorded pKd belonging to Kwar23 (antibody, V domains shown) VH: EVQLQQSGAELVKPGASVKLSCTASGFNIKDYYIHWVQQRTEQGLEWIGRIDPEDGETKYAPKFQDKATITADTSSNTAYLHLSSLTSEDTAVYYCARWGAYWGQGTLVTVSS VL: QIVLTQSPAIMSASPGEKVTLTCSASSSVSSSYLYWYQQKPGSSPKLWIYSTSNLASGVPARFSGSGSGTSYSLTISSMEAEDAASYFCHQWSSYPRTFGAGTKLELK and report it.
**A:** 9.44

**Q:** Find the recorded pKd belonging to HEFLA (antibody, human IgG4 S228P, kappa, V domains shown, humanized 18D5 variant) VH: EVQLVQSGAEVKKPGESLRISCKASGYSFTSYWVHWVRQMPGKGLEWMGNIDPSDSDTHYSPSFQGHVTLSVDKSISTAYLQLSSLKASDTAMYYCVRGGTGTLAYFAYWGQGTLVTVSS VL: DVVMTQSPLSLPVTLGQPASISCRSSQSLVHSYGNTYLYWYQQRPGQSPRLLIYRVSNRFSGVPDRFSGSGSGTDFTLKISRVEAEDVGVYFCFQGTHVPYTFGGGTKVEIKR and report it.
**A:** 9.58

**Q:** Find the recorded pKd belonging to HFLB (antibody, human IgG4 S228P, kappa, V domains shown, humanized 18D5 variant) VH: EVQLVQSGAEVKKPGESLRISCKASGYSFTSYWVHWVRQMPGKGLEWMGNIDPSDSDTHYSPSFQGHVTLSVDKSISTAYLQLSSLKASDTAMYYCVRGGTGTMAYFAYWGQGTLVTVSS VL: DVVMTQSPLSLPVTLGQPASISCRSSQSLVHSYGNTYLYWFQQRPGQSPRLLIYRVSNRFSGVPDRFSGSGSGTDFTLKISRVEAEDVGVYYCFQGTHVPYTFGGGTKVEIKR and report it.
**A:** 9.50

**Q:** Find the recorded pKd belonging to HFLA (antibody, human IgG4 S228P, kappa, V domains shown, humanized 18D5 variant) VH: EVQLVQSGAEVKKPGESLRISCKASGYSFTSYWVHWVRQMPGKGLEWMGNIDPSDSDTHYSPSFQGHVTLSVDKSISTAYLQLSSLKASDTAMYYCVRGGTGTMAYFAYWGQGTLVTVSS VL: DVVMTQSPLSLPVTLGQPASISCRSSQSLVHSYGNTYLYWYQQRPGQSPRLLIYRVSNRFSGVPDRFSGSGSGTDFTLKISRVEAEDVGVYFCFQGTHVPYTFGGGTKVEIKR and report it.
**A:** 9.66
